molecular target: purified human, His-tagged PRC2 complex (Homo sapiens, UniProt O75530+Q15910); assay: Hot Spot HMT assay: inhibition of PRC2 enzymatic activity (transfer of tritiated methyl from SAM to core histone, filter binding); assay type: biochemical; conditions: Inhibition of PRC2-mediated enzymatic activity; 10 nM PRC2 complex, 0.05 mg/ml core histone H3, 1 uM 3H-SAM, 1 hr at 30°C
Sequence (Q15910 whole entry): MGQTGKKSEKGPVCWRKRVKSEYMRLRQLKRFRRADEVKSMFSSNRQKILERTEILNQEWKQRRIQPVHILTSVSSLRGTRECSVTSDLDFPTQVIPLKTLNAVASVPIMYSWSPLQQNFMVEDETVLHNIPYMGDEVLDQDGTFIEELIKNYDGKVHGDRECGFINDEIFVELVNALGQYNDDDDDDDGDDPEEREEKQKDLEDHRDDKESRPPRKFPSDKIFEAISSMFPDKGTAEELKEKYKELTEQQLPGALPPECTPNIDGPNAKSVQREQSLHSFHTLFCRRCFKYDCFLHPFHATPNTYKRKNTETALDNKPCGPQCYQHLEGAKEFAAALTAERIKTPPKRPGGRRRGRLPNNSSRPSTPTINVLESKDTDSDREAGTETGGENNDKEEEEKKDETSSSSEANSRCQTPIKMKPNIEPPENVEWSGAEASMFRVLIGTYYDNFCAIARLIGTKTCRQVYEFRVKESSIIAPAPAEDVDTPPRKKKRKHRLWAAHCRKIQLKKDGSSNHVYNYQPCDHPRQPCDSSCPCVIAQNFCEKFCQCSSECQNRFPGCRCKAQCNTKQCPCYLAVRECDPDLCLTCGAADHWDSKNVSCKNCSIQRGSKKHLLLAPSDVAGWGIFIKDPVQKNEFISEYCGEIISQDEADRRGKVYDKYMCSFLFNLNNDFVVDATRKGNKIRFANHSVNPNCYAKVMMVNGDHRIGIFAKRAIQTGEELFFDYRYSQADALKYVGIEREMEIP
Sequence (O75530 whole entry): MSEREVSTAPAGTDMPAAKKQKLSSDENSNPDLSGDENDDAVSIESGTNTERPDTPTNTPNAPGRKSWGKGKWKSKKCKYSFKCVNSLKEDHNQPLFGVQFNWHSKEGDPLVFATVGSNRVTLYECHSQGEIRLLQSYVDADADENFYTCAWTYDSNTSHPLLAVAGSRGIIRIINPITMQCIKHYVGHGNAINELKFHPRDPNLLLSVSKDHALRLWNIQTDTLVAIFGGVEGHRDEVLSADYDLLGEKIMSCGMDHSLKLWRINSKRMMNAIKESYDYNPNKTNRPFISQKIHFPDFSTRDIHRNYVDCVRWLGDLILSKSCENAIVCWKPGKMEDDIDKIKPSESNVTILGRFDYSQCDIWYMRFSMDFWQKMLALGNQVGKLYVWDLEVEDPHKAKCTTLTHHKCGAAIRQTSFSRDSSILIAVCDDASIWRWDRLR
Sequence (Q15022 whole entry partner): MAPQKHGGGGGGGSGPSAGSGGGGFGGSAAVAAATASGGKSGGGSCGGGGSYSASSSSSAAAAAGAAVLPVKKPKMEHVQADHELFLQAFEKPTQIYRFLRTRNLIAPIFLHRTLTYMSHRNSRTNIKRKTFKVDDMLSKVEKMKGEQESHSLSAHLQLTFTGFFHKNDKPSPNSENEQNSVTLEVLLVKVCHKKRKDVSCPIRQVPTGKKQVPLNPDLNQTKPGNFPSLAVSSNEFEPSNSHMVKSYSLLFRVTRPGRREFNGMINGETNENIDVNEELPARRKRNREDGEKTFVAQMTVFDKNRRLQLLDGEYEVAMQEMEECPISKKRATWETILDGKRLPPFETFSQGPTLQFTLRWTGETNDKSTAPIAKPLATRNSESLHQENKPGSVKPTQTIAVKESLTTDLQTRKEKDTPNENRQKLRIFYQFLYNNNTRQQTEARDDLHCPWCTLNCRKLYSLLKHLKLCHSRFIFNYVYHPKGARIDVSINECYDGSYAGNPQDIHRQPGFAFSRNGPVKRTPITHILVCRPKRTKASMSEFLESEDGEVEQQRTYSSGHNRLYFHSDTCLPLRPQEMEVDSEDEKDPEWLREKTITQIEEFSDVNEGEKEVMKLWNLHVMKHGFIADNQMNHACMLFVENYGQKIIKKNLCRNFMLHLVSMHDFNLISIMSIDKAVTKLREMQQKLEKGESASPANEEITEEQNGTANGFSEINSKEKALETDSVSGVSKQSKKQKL
Sequence (Q6ZN18 whole entry partner): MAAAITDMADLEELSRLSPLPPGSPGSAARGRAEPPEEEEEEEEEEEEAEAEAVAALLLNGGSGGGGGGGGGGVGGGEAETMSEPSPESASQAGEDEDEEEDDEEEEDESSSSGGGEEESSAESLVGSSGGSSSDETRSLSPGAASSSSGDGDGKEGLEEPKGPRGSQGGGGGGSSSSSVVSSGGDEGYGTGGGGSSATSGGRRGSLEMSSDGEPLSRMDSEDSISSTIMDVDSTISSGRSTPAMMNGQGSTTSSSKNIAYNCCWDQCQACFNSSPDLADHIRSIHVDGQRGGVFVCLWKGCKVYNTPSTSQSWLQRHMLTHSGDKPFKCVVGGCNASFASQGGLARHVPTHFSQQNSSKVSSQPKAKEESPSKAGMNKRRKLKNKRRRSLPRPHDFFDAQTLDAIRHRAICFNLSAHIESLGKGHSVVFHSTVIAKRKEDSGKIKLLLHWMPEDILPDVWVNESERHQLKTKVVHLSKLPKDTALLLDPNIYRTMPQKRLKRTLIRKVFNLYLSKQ
Sequence (Q09028 whole entry partner): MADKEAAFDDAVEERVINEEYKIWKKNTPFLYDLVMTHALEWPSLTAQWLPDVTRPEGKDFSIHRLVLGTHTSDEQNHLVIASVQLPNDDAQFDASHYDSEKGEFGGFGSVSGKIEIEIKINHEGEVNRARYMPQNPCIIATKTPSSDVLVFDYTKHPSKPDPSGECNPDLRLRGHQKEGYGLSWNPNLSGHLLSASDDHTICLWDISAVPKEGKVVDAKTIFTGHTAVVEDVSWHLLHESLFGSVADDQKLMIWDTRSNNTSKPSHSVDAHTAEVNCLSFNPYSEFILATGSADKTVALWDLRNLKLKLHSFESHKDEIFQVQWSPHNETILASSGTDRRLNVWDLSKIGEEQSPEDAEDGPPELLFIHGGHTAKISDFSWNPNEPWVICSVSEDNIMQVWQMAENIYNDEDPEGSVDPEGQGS
pIC50: −log10 of the molar value.
Form field: pIC50 (one value per entry).

In the examples that follow, each entry is paired with its recorded pIC50.
CC(C)Oc1ccc(-c2cnc(NCc3c(F)ccc4c3CCO4)n3cc(C#N)nc23)cn1 [Example 133] ... > 7.00
N#Cc1cn2c(NCc3c(F)ccc4c3CCO4)ncc(-c3cnccn3)c2n1 [Example 68] ... > 7.00
CN(C)Cc1ccc(-c2cnc(NCc3c(F)ccc4c3CCO4)n3cc(C#N)nc23)c(Cl)c1 [Example 33] ... > 7.00
Cc1ncc(-c2cnc(NCc3c(F)ccc4c3CCO4)n3cc(C#N)nc23)cc1N [Example 129] ... > 7.00
N#Cc1cn2c(NCc3c(F)ccc4c3CCO4)ncc(-c3cccc(C(=O)O)c3)c2n1 [Example 174] ... > 7.00
Cc1ncccc1-c1cnc(NCc2c(F)ccc3occc23)n2cc(C(=O)O)nc12 [Example 3] ... 6.30 to 7.00

Ask | # input molecule: N#Cc1cn2c(NCc3c(F)ccc4c3CCO4)ncc(-c3ccc(CN4CCC(O)C4)cc3)c2n1 (centres unmarked) [Example 151] ; wanted: its pIC50
Reply | > 7.00

Ask | # input molecule: N#Cc1cn2c(NCc3c(F)ccc4c3CCO4)ncc(-c3ccccc3)c2n1 [Example 46] ; wanted: its pIC50
Reply | > 7.00

Ask | # input molecule: CN(C)CCc1ccc(-c2cnc(NCc3c(F)ccc4c3CCO4)n3cc(C#N)nc23)cc1 [Example 163] ; wanted: its pIC50
Reply | > 7.00

Ask | # input molecule: Cn1cccc(-c2cnc(NCc3c(F)ccc4c3CCO4)n3cc(C#N)nc23)c1=O [Example 156] ; wanted: its pIC50
Reply | 6.30 to 7.00

----------
target: purified human, His-tagged PRC2 complex (Homo sapiens, UniProt O75530+Q15910); assay: Hot Spot HMT assay: inhibition of PRC2 enzymatic activity (transfer of tritiated methyl from SAM to core histone, filter binding); assay type: biochemical; conditions: Inhibition of PRC2-mediated enzymatic activity; 10 nM PRC2 complex, 0.05 mg/ml core histone H3, 1 uM 3H-SAM, 1 hr at 30°C
Form field: IC50 (one value per entry).

Cc1ncccc1-c1cnc(NCc2c(F)ccc3occc23)n2cc(C#N)nc12 [Example 22] ... 100 to 500 nM
Cc1cc(S(=O)(=O)C(F)(F)F)ccc1-c1cnc(NCc2c(F)ccc3c2CCO3)n2cc(C#N)nc12 [Example 184] ... 100 to 500 nM
COc1cc(-c2cnc(NCc3c(F)ccc4c3CCO4)n3cc(C#N)nc23)c(F)cn1 [Example 123] ... < 100 nM
COc1cc(C)c(-c2cnc(NCc3c(F)ccc4c3CCO4)n3cc(C(=O)O)nc23)cn1 [Example 6] ... 100 to 500 nM
Cc1cc(-c2cnc(NCc3c(F)ccc4c3CCO4)n3cc(C#N)nc23)ccc1CN(C)C [Example 200] ... 100 to 500 nM

Ask | # input molecule: Cc1cc(-c2cnc(NCc3c(Cl)ccc4c3CCO4)n3cc(C#N)nc23)n(C)n1 [Example 29] ; wanted: its IC50
Reply | > 500 nM

Ask | # input molecule: COc1cc(C)c(-c2cnc(NCc3c(F)ccc4c3CCO4)n3cc(C(N)=O)nc23)cn1 [Example 14] ; wanted: its IC50
Reply | 100 to 500 nM

Ask | # input molecule: CNC(=O)c1ccc(-c2cnc(NCc3c(F)ccc4c3CCO4)n3cc(C#N)nc23)cc1 [Example 186] ; wanted: its IC50
Reply | < 100 nM

Ask | # input molecule: N#Cc1cn2c(NCc3c(F)ccc4c3CCO4)ncc(-c3ccc(C4CC4)nc3)c2n1 [Example 116] ; wanted: its IC50
Reply | < 100 nM

----------
biological target: purified human, His-tagged PRC2 complex (Homo sapiens, UniProt O75530+Q15910); experiment: Hot Spot HMT assay: inhibition of PRC2 enzymatic activity (transfer of tritiated methyl from SAM to core histone, filter binding); type: biochemical; conditions: Inhibition of PRC2-mediated enzymatic activity; 10 nM PRC2 complex, 0.05 mg/ml core histone H3, 1 uM 3H-SAM, 1 hr at 30°C
endpoint_name: IC50

In the examples that follow, each entry is paired with its recorded IC50.
Cc1ccc(-c2cnc(NCc3c(F)ccc4c3CCO4)n3cc(C#N)nc23)c(C)n1 ... < 100 nM
N#Cc1cn2c(NCc3c(F)ccc4c3CCO4)ncc(-c3cccnn3)c2n1 ... < 100 nM

Ask | # input molecule: "Cc1cn(-c2cnc(NCc3c(F)ccc4c3CCO4)n3cc(C(=O)O)nc23)cn1" ; wanted: its IC50
Reply | < 100 nM

Ask | # input molecule: "Cc1nc(C2CC2)ncc1-c1cnc(NCc2c(F)ccc3c2CCO3)n2cc(C(N)=O)nc12" ; wanted: its IC50
Reply | 100 to 500 nM

Ask | # input molecule: "N#Cc1cncc(-c2cnc(NCc3c(F)ccc4c3CCO4)n3cc(C#N)nc23)c1" ; wanted: its IC50
Reply | < 100 nM

Ask | # input molecule: "Cn1cc(-c2cnc(NCc3c(F)ccc4c3CCO4)n3cc(C#N)nc23)c(C#N)n1" ; wanted: its IC50
Reply | 100 to 500 nM

Ask | # input molecule: "Cc1cc(-c2cnc(NCc3c(F)ccc4c3CCO4)n3cc(C#N)nc23)n(C)n1" ; wanted: its IC50
Reply | < 100 nM

Ask | # input molecule: "CS(=O)(=O)c1ccc(-c2cnc(NCc3c(F)ccc4c3CCO4)n3cc(C#N)nc23)cc1" ; wanted: its IC50
Reply | < 100 nM

Ask | # input molecule: "CN(C)Cc1c(F)cc(-c2cnc(NCc3c(F)ccc4c3CCO4)n3cc(C#N)nc23)cc1F" ; wanted: its IC50
Reply | 100 to 500 nM

Ask | # input molecule: "N#Cc1cn2c(NCc3c(F)ccc4c3CCO4)ncc(-c3cnn(Cc4cccnc4)c3)c2n1" ; wanted: its IC50
Reply | 100 to 500 nM

Ask | # input molecule: "Cc1cc(-c2cnc(NCc3c(F)ccc4c3CCO4)n3cc(C(=O)N(C)C)nc23)n(C)n1" ; wanted: its IC50
Reply | > 500 nM

Ask | # input molecule: "Cc1ncncc1-c1cnc(NCc2c(F)ccc3c2CCO3)n2cc(C#N)nc12" ; wanted: its IC50
Reply | < 100 nM

----------
system: Karpas 422 cells; assay: Karpas 422 cell viability, CTG (Cell Titre Glo) assay; type: cell-based, human; details: Homo sapiens; Inhibition of proliferation of Karpas 422 cells (EZH2 Y641N); viability measured Day 4, Day 7 or Day 11, time point of the tabulated values not stated
endpoint_name: IC50

Ask | # input compound: CCOc1ncccc1-c1cnc(NCc2c(F)ccc3c2CCO3)n2cc(C#N)nc12 [Example 124] ; wanted: its IC50
Reply | > 500 nM

Ask | # input compound: [2H]C([2H])([2H])N(Cc1ccc(-c2cnc(NCc3c(F)ccc4c3CCO4)n3cc(C#N)nc23)c(C)c1)C([2H])([2H])[2H] [Example 202] ; wanted: its IC50
Reply | ≤ 250 nM

Ask | # input compound: Cc1cc(CN(C)C)c(F)cc1-c1cnc(NCc2c(F)ccc3c2CCO3)n2cc(C#N)nc12 [Example 84] ; wanted: its IC50
Reply | ≤ 250 nM

Ask | # input compound: Cc1nc(C2CC2)ncc1-c1cnc(NCc2c(F)ccc3c2CCO3)n2cc(C(=O)O)nc12 [Example 7] ; wanted: its IC50
Reply | > 500 nM

Ask | # input compound: N#Cc1cn2c(NCc3c(F)ccc4c3CCO4)ncc(-c3ccc4c(c3)CNC4)c2n1 [Example 205] ; wanted: its IC50
Reply | ≤ 250 nM

Ask | # input compound: Cc1ccc(-c2cnc(NCc3c(F)ccc4c3CCO4)n3cc(C#N)nc23)c(C)n1 [Example 67] ; wanted: its IC50
Reply | ≤ 250 nM

Ask | # input compound: N#Cc1cn2c(NCc3c(F)ccc4c3CCO4)ncc(-c3cnn(CCO)c3)c2n1 [Example 182] ; wanted: its IC50
Reply | ≤ 250 nM

----------
test system: PRC2-mediated histone H3 methylation; assay: Tri-Methyl Histone H3 (Lys 27) Sandwich ELISA in Pfeiffer cells: inhibition of PRC2-mediated histone H3 methylation; type: cell-based, human; details: Homo sapiens; Inhibition of EZH2-mediated histone H3 trimethylation; Pfeiffer cells (EZH2 A677G), 96 hours incubation
pIC50: −log10 of the molar value.
endpoint_name: pIC50

Ask | # input molecule: "N#Cc1cn2c(NCc3c(F)ccc4c3CCO4)ncc(-c3ccc(CN4CCOCC4)cc3)c2n1" ; wanted: its pIC50
Reply | 6.30 to 7.00

Ask | # input molecule: CC(c1ccc(-c2cnc(NCc3c(F)ccc4c3CCO4)n3cc(C#N)nc23)cc1)N(C)C (stereo not shown) ; wanted: its pIC50
Reply | 6.30 to 7.00

Ask | # input molecule: "Cc1nc(-c2cnc(NCc3c(F)ccc4c3CCO4)n3cc(C#N)nc23)c(C)s1" ; wanted: its pIC50
Reply | 6.30 to 7.00

Ask | # input molecule: Cc1cc(CN(C)C)ccc1-c1cnc(NCc2c(F)ccc3c2C(O)CO3)n2cc(C#N)nc12 (stereo not shown) ; wanted: its pIC50
Reply | ≥ 7.00
